Measured %Inh values are reported for all entries that follow.
- System: PRKD3;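 note: KINOMEscan kinase panel screen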
- measurement conditions: concentration: 1 μM, replicates: in singlicate; n = 1
readout: %Inh

[[record]]
compound = "Cc1ccc(NC(=O)c2ccnc(N3CCN(C)CC3)c2)cc1-c1ccc(C(=O)NCC2CC2)cc1 [GW775604]"
target_under_test = "PRKD3"
result = "0%"

[[record]]
compound = "Cn1cc(-c2ccc3c(c2)CCN3C(=O)Cc2ccccc2Cl)c2c(N)ncnc21 [GSK2608885]"
target_under_test = "PRKD3"
result = "54%"

[[record]]
compound = "COc1ccc(CNC(=O)NC2CCN(c3ccnc(Nc4ccc(OC)cc4)n3)C2)cc1 (stereo not drawn) [GSK1379727]"
target_under_test = "PRKD3"
result = "0%"

[[record]]
compound = "Cc1nnc(-c2ccc3ncc(-c4ccc(S(C)=O)cc4)n3c2)o1 (stereo not drawn)"
target_under_test = "PRKD3"
result = "0%"

[[record]]
compound = "COc1cc2ncn(-c3cc(OCc4sccc4Cl)c(C(N)=O)s3)c2cc1OC [GSK448459]"
target_under_test = "PRKD3"
result = "0%"

[[record]]
compound = "O=c1cc(N2CCOCC2)nc2n(Cc3cccc4ccccc34)ccn12 [GSK2333389]"
target_under_test = "PRKD3"
result = "23%"

[[record]]
compound = "COc1ccc(Nc2ncc(C#N)c(Nc3ccccc3C(N)=O)n2)cc1N1CCN(C)CC1.Cl [GSK1558669]"
target_under_test = "PRKD3"
result = "99%"

[[record]]
compound = "Cc1cn2c(=O)cc(N3CCOCC3)nc2n1Cc1cccc(Cl)c1Cl [GSK2334006]"
target_under_test = "PRKD3"
result = "18%"

[[record]]
compound = "[2H]C([2H])(c1cccc(C(F)(F)F)c1C)n1ccn2c(=O)nc(N3CCOCC3)cc12 [GSK2336394]"
target_under_test = "PRKD3"
result = "27%"

[[record]]
compound = "Cc1ccc(C(=O)NCC(N)=O)cc1-n1c(C)cc(OCc2ccc(F)cc2F)c(Br)c1=O"
target_under_test = "PRKD3"
result = "15%"

[[record]]
compound = "Cc1cccc(Cn2ccn3c(=O)cc(N4CCOCC4)nc23)c1 [GSK2297542]"
target_under_test = "PRKD3"
result = "24%"

[[record]]
compound = "CN(C1=C(c2ccccc2)C(=O)NC1=O)c1ccccc1 [SB-334860]"
target_under_test = "PRKD3"
result = "25%"

[[record]]
compound = "COC(=O)Nc1nc2cc(Oc3ccc(NC(=O)Nc4cc(F)ccc4F)cc3)ccc2[nH]1.Cl [GW701424]"
target_under_test = "PRKD3"
result = "6%"

[[record]]
compound = "CN(C(=O)c1ccc(-c2cc(-c3c[nH]nc3-c3ccccn3)ccn2)cc1)C1CCOCC1 [GW810083]"
target_under_test = "PRKD3"
result = "0%"

[[record]]
compound = "COc1ccc(Nc2nccc(N3CCC(NC(=O)Nc4cc(C)ccc4C)C3)n2)cc1 (stereo not drawn) [GSK1379741]"
target_under_test = "PRKD3"
result = "4%"

[[record]]
compound = "CCn1cnc2c(N)ncnc21 [GW345098]"
target_under_test = "PRKD3"
result = "23%"

[[record]]
compound = "O=C(Nc1cccc(-c2nn3ncccc3c2-c2ccnc(Nc3cccc(C(F)(F)F)c3)n2)c1)c1c(F)cccc1F [GSK299495]"
target_under_test = "PRKD3"
result = "14%"

[[record]]
compound = "CCCCCc1nc2c(N)ncnc2n1CCCCC [SKF-97255]"
target_under_test = "PRKD3"
result = "0%"

